Target: T1, GST-Syntrophin 1 alpha PDZ domain 1 fusion protein (human), Q13424
T1 chain: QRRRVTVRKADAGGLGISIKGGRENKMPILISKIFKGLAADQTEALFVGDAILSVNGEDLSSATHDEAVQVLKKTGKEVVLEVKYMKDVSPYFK
Assay: G3 assay titration, immobilised GST-PDZ
pEC50: −log10 of the molar value. No end group written: not given here.
TEST_READOUT: pEC50

| BINDER | TEST_READOUT | REPORTED_RESULT |
| --- | --- | --- |
| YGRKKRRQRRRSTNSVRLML (not fully specified) | pEC50 | 6.80 |
